Assay: NCI Yeast Anticancer Drug Screen. Data for the cln2 rad14 strain (AID 165);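 also: 0% = growth equal to vehicle treated cultures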
Settings: S. cerevisiae cln2 rad14 strain, at 5.0 µM (retest, dose inferred, filed as 0.5)
This is part of a sample that, as a whole, favours compounds with a hit. Of some 79,000 tested, about 15% had one in any assay. Active and inactive are the calls of the source. Rule as the data show it: active = growth inhibition above about 70%; inactive = the rest.
Write down one outcome, taken from active, inactive

Some entries whose results are on file:
- CCOC(=O)NC(=S)[S][Sb]([S]C(=S)NC(=O)OCC)[S]c1nc2ccc(N=Nc3ccc(NS(=O)(=O)c4ccc(NC(=O)C(N5CC5)(N5CC5)N5CC5)cc4)cc3)cc2s1: inactive
- N#CC(C#N)=Cc1ccc(C#N)cc1: inactive
- O=[N+]([O-])c1ccc(C=Cc2ccccc2)cc1.[C-]#[O+].[C-]#[O+].[C-]#[O+].[Cr]: inactive
- COc1c(Br)cc(/C=C(/C)[N+](=O)[O-])cc1Br: inactive
- CCC(C)c1cc([N+](=O)[O-])cc([N+](=O)[O-])c1O (stereo unspecified): inactive
- CC(=O)C1CCC2C3CCC4CC([N+]5(C)CCCCC5)CCC4(C)C3CCC12C (stereo unspecified): inactive
- COc1ccc2c(c1O)-c1cccc3c1[C@@H](C2)N(CCCl)CC3: inactive
- Cc1cc[n+](C2=C(Nc3cc(C)cc(C)c3)C(=O)c3ccccc3C2=O)cc1: inactive
- CCN(CC)CC(=O)O[C@]1(CC)C(=O)OCc2c1cc1n(c2=O)Cc2cc3ccccc3nc2-1: inactive
- COc1cc(C[C@H]2c3cc(OC)c(OC)c(O)c3CCN2C)c(Oc2cc3c(cc2OC)-c2c(OC)c(OC)c(OC)c4c2C(C3)N(C)CC4)cc1OC (stereo partly specified) (tested in a mixture with another compound): inactive

Name the outcome recorded for NC(C(=O)O)c1ccccc1Cl (stereo unspecified) in the assay.
inactive

Name the outcome recorded for CCC1(O)C(=O)OCc2c1cc1n(c2=O)Cc2cc3cc([N+](=O)[O-])ccc3nc2-1 (stereo unspecified) in the assay.
inactive

Name the outcome recorded for O=[As]c1ccc(Cl)cc1Cl (stereo unspecified) in the assay.
active

Name the outcome recorded for O=c1[nH]cnc2[nH]cc(CN3CCCCC3)c12 in the assay.
inactive

* * *

Test: NCI Yeast Anticancer Drug Screen. Data for the mec2-1 strain (AID 157)
Conditions: S. cerevisiae mec2-1 strain, at 50.0 µM (retest, dose inferred, filed as 5.0)
About 79,000 compounds went through this panel and 15% of them were active in at least one assay; those are over-represented in the sample as a whole. The source made the active and inactive calls. No stated cut-off is given here; in the data, active means growth inhibition above about 70%; inactive means the rest.
Write down one outcome, taken from yes (1) for active, no (0) for inactive

Some entries whose results are on file:
- CCOP(=O)(CC(C)P(=O)(OCC)OCC)OCC.C[CH2][Sn]([Cl])([Cl])[CH2]C (configuration not stated): no (0)
- CCN1/C(=C\c2ccc3cc(C)ccc3[n+]2CC)[Se]c2ccccc21: yes (1)
- COc1cc(O)c2c(O)c3c(c4c2c1[C@]1(C4)C(C)=CCCC1(C)C)[C@H](O)[C@@]1(O)CC(=O)C(C(N)=O)=C(O)[C@@]1(O)C3=O: yes (1)
- O=C(O)C1C2c3ccccc3C(c3ccccc32)C1Br (configuration not stated): no (0)
- COc1cc2c(cc1OC)C13CCN4CC5=CCOC6CC(=O)N2C1C6C5CC43 (configuration not stated) (tested in a mixture with another compound): no (0)
- CC[C@@]1(O)C[C@H](OC2CC(N(C)C)C(OC3CC(O)C(OC4CCC(=O)C(C)O4)C(C)O3)C(C)O2)c2c(cc3c(c2O)C(=O)c2c(O)ccc(O)c2C3=O)[C@H]1C(=O)OC (some centres not stated): yes (1)
- BrCc1ccc2ncccc2c1: yes (1)
- Oc1c(Cl)c(Cl)c(Cl)c(Cl)c1Cl.[Cu+2]: yes (1)

Name the outcome recorded for OC1(c2ccccc2)CC2CCC(C1)N2CCCC(O)(c1ccccc1)c1ccccc1 (configuration not stated) in the assay.
no (0)

Name the outcome recorded for [C-]#[O+].[C-]#[O+].[C-]#[O+].[Cl-].[Ru+2].c1ccc([PH+](CC[PH+](c2ccccc2)c2ccccc2)CC[PH+](c2ccccc2)c2ccccc2)cc1 in the assay.
yes (1)

Name the outcome recorded for CC(Br)CN(CC(C)Br)c1ccc2c(c1)Cc1ccccc1-2 (configuration not stated) in the assay.
no (0)

Name the outcome recorded for CCc1cc2c(cc1O)C(C)(C)CCC2(C)C in the assay.
no (0)

* * *

Assay: NCI Yeast Anticancer Drug Screen. Data for the CLN2oe strain (AID 163);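 also: 0% = growth of vehicle-only control cultures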
Details: S. cerevisiae CLN2oe strain, at 33.0 µM, active compounds read high
The panel holds about 79,000 compounds, 15% with a hit somewhere; the sample as a whole holds those more often.
MEASURED_ENDPOINT: growth inhibition (%)
All answers are understood in %, so give the number only.

The cases that follow already have their growth inhibition on record.
* CCC1(OC(=O)CN)C(=O)OCc2c1cc1n(c2=O)Cc2cc3ccccc3nc2-1 (stereo not drawn) | 80
* BrCC[N+]12CC[N+](CCBr)(CC1)C2 | 78

Tell us which growth inhibition value is on record for CCN(CCCl)CCCCNc1c2ccccc2nc2ccc(OC)cc12
78

* * *

Assay: NCI Yeast Anticancer Drug Screen. Data for the rad50 strain (AID 155);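 also: 0% = growth of vehicle-only cultures of the same strain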
Conditions: S. cerevisiae rad50 strain growth inhibition; at 50.0 µM; active compounds read high
Compounds without any hit were thinned out: in the full panel of roughly 79,000, 15% have a hit.
Parameter: growth inhibition. Scope: all listed entries.
All answers are understood in %, so give the number only.

The cases that follow already have their growth inhibition on record.
- Nc1nc(N)c2c(Cl)c(CNc3ccc(C(=O)NC(CC(=O)O)C(=O)O)cc3)ccc2n1 (stereo not drawn): 77.5
- C[N+](C)(C)CC1CCC(C[N+](C)(C)C)C1=O (stereo not drawn): -1.75
- Cc1cc(O)c2c(c1)C(=O)C13C(=C2O)C(=O)C2C(O)C1C1C(O)C3C(=O)C3=C(O)c4c(O)cc(C)cc4C(=O)C321 (stereo not drawn): 69.7

Tell us which growth inhibition value is on record for C=CCN(CC=C)CC(C(C)=O)C(c1ccccc1)c1c(O)c2ccccc2oc1=O (stereo not drawn)
85.3

Tell us which growth inhibition value is on record for CCOc1c(Br)cc(/C=C/[N+](=O)[O-])cc1OC
69.8

Tell us which growth inhibition value is on record for CC1C(=O)OCC1(C)O (stereo not drawn)
-15.2

Tell us which growth inhibition value is on record for CC(=O)OC1C2(CC3N4C(=O)C5(CO)SSC4(CC31O)C(=O)N5C)OC(C)C(C)(C)C2=O (stereo not drawn)
90.2

Tell us which growth inhibition value is on record for CN1CC(Br)(Br)C(=O)N(C)C1=O
89.8

Tell us which growth inhibition value is on record for O=C1C(Br)=CC2(C=C1Br)CCNc1c(O)c3c4c(c12)=NCCC=4C=N3
57.9

Tell us which growth inhibition value is on record for O=C(O)c1ccccc1[Se][Se]c1ccccc1C(=O)O
21.1

* * *

Assay: NCI Yeast Anticancer Drug Screen. Data for the sgs1 mgt1 strain (AID 161);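 also: 0% = growth of cultures given vehicle only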
Conditions: S. cerevisiae sgs1 mgt1 strain, at 50.0 µM, active compounds read high
About 79,000 compounds went through this panel and 15% of them were active in at least one assay; those are over-represented in the sample as a whole.
MEASURED_ENDPOINT: growth inhibition (%)
All answers are understood in %, so give the number only.

The cases that follow already have their growth inhibition on record.
* C=CC[N+]12CN3CN(CN(C3)C1)C2 | 59.8
* C[CH2][Sn]1([CH2]C)[O]C2C(O)OC(CO)C(O)C2[O]1 (configuration not stated) | 53.5

Tell us which growth inhibition value is on record for O=[N+]([O-])c1ccc([Se]CCBr)c([N+](=O)[O-])c1
18.2

Tell us which growth inhibition value is on record for C[CH2][Sn]([Cl])([CH2]C)[O][Sn]([CH2]C)([CH2]C)[O][Sn]([Cl])([CH2]C)[CH2]C
86.3

Tell us which growth inhibition value is on record for [O-][n+]1onc2ccccc21
49.9

Tell us which growth inhibition value is on record for COC(=O)C(C)(C)[n+]1c(C)cc(C)cc1C
-3.1

* * *

Experiment: NCI Yeast Anticancer Drug Screen. Data for the rad50 strain (AID 155);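 also: 0% = growth of vehicle-only cultures of the same strain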
Settings: S. cerevisiae rad50 strain growth inhibition; at 50.0 µM (retest, dose inferred, filed as 5.0); active compounds read high
Compounds without any hit were thinned out: in the full panel of roughly 79,000, 15% have a hit.
Parameter: growth inhibition. Scope: all listed entries.
All answers are understood in %, so give the number only.

- c1ccc([CH2][Pb]([c]2ccccc2)([c]2ccccc2)[c]2ccccc2)cc1: 96

Tell us which growth inhibition value is on record for O=S(=O)(O)c1ccc(Cl)cc1.[Cd]
46

Tell us which growth inhibition value is on record for CCCCCCCCCCCCCCCc1cccc(O)c1O
-7

Tell us which growth inhibition value is on record for CN(C)CC1CC2C3CC=C4CC(O)CCC4(C)C3CCC2(C)C1=O (centres undefined)
78

Tell us which growth inhibition value is on record for O=S(=O)(O)O.[Pt].c1ccc([PH+](c2ccccc2)c2ccccc2)cc1.c1ccc([PH+](c2ccccc2)c2ccccc2)cc1.c1ccc([PH+](c2ccccc2)c2ccccc2)cc1
95

Tell us which growth inhibition value is on record for O=P(CP(=O)(c1ccccc1)c1ccccc1)(c1ccccc1)c1ccccc1.[CH3][Sn]([CH3])([Cl])[Cl]
27

Tell us which growth inhibition value is on record for CCC/C=[CH]/[Hg][Cl]
99

Tell us which growth inhibition value is on record for CCC[CH2][Sn]1([CH2]CCC)[O]CC[S]1
99

Tell us which growth inhibition value is on record for Cc1c2ccccc2cc2ccccc12
98
